Here the recorded inhibition in vivo at 10 mg/kg is given for each entry.
# System: Mus musculus
# PROTOCOL_DETAILS: Inhibition of mouse 11beta-HSD1 mediated [3H]cortisone to [3H]cortisol conversion at 10 mg/kg, po after 4 hrs
Give the value, in units of %, as a plain number.

Use these answered entries as a reference point.
# SMILES_REPRESENTATION, UNITS, inhibition in vivo at 10 mg/kg
rows = [
    ("Cn1c(-c2ccc3ccccc3c2)nnc1-c1ccccc1C(F)(F)F", "%", 35),
    ("Cn1c(-c2ccccc2Cl)nnc1-c1ccccc1Cl", "%", 67),
    ("COc1c(-c2nnc(-c3ccccc3C(F)(F)F)n2C)ccc2ccccc12", "%", 77),
    ("CCCCCc1ccc(-c2nnc(-c3ccccc3Cl)n2C)cc1", "%", 38),
    ("COc1c(-c2nnc(-c3ccccc3S(C)(=O)=O)n2C)ccc2ccc(Cl)cc12", "%", 7),
    ("Cn1c(-c2ccccc2C(F)(F)F)nnc1-c1ccccc1C(F)(F)F", "%", 46),
    ("Cn1c(-c2ccccc2)nnc1-c1ccccc1Cl", "%", -3),
    ("Cn1c(-c2ccccc2)nnc1-c1cccc2c1ccn2C", "%", 9),
]

Give inhibition in vivo at 10 mg/kg only, for COc1c(-c2nnc(-c3ccccc3C(F)(F)F)n2C)cc(Cl)c2ccccc12 , using Mus musculus data.
10

Give inhibition in vivo at 10 mg/kg for this entry on Mus musculus: CCS(=O)(=O)CCCc1ccc(-c2nnc(-c3ccccc3C(F)(F)F)n2C)c(Cl)c1
73

# assay system Mus musculus: give inhibition in vivo at 10 mg/kg of Cn1c(-c2ccccc2C(F)(F)F)nnc1-c1ccc2ccc(Cl)cc2c1O
14

Quote inhibition in vivo at 10 mg/kg with test system Mus musculus for Cn1c(-c2ccccc2Cl)nnc1-c1cccc2c1ccn2C
66

Provide inhibition in vivo at 10 mg/kg, recorded with Mus musculus, of Cc1ccc2ccccc2c1-c1nnc(-c2ccccc2C(F)(F)F)n1C
0

Report inhibition in vivo at 10 mg/kg under test system Mus musculus for Cn1c(-c2ccc(O)cc2)nnc1-c1cccc2c1ccn2C .
75

Tell me inhibition in vivo at 10 mg/kg of Cn1c(-c2ccccc2OC(F)(F)F)nnc1-c1ccccc1C(F)(F)F when tested on Mus musculus.
79

Check Mus musculus data and give inhibition in vivo at 10 mg/kg for Cn1c(-c2ccccc2Br)nnc1-c1ccccc1C(F)(F)F .
56

Provide Mus musculus inhibition in vivo at 10 mg/kg reading for Cn1c(-c2ccccc2C(F)(F)F)nnc1-c1cccc2c1ccn2C .
52

Consider the compound Cc1ccc2ccc(-c3nnc(-c4ccccc4C(F)(F)F)n3C)cc2c1 tested on Mus musculus; state its inhibition in vivo at 10 mg/kg.
15

Please respond with reported inhibition in vivo at 10 mg/kg (system Mus musculus) for COc1c(-c2nnc(-c3ccccc3C(F)(F)F)n2C)cc2ccccc2c1Cl .
14

Provide Mus musculus inhibition in vivo at 10 mg/kg reading for CNc1c(-c2nnc(-c3ccccc3C(F)(F)F)n2C)ccc2ccccc12 .
24

Enter recorded inhibition in vivo at 10 mg/kg with Mus musculus for Cn1c(-c2ccccc2C(F)(F)F)nnc1-c1cccc(C(F)(F)F)c1C(F)(F)F here.
27

Provide measured inhibition in vivo at 10 mg/kg on Mus musculus for Cn1c(-c2ccccc2C(F)(F)F)nnc1-c1ccc2ccccc2c1F please.
37

Please indicate recorded inhibition in vivo at 10 mg/kg of Cn1c(-c2cc3ccccc3cc2Cl)nnc1-c1ccccc1C(F)(F)F measured with Mus musculus.
13
